measurement_description: NCI Yeast Anticancer Drug Screen. Data for the rad14 strain (AID 159);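 further: 0% = growth of vehicle-treated control cultures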
experimental_setup: S. cerevisiae rad14 strain growth inhibition; at 11.0 µM; active compounds read high
About 79,000 compounds went through this panel and 15% of them were active in at least one assay; those are over-represented in the sample as a whole.
measure_name: growth inhibition (%)
Answer with a number only, understood to be in %.

Recall and state the measured growth inhibition for `CS(=O)(=O)O.[Ag]` .
98

Recall and state the measured growth inhibition for O=C1c2ccccc2N2OC3(N4CCCC4)CCCCC3C12c1ccccc1 (stereo unspecified) .
-27

Recall and state the measured growth inhibition for `CC(C)(CN1CCCCC1)C(=O)/C=C/c1c(Cl)cccc1Cl` .
92

* * *

measurement_description: NCI Yeast Anticancer Drug Screen. Data for the wt1 strain (AID 149);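 further: 0% = growth of vehicle-treated wt1 cultures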
experimental_setup: S. cerevisiae wt1 strain (SPY 50644) growth inhibition; at 3.7 µM
About 79,000 compounds went through this panel and 15% of them were active in at least one assay; those are over-represented in the sample as a whole. Activity calls are given as the source filed them. No stated cut-off is given here; in the data, active means growth inhibition above about 70%; inactive means the rest.
# output must be one of active, inactive

compound: CN(C)N=Nc1ccc(N(C)C)cc1
assigned_class: inactive
--
compound: CCN(CC)CCCNc1ccc([N+](=O)[O-])c2nc3ccc(OC)cc3c(NCCCN(CC)CC)c12
assigned_class: inactive
--
compound: c1ccc([P+](CCN2Cc3ccccc3C2)(c2ccccc2)c2ccccc2)cc1
assigned_class: inactive
--
compound: O=C1c2ccccc2C(=O)c2sc(Nc3ccccc3Cl)nc21
assigned_class: inactive
--
compound: O=[N+]([O-])c1ccc(C(c2c[nH]c3ccccc23)c2c[nH]c3ccccc23)cc1
assigned_class: active

# lookup: test call for `O=C1c2ccccc2-c2ccc(N=Cc3ccccc3)cc21`
inactive

# lookup: test call for O=S(=O)(NC1CCCC(c2ccccc2)C1)c1ccccc1 (stereo unspecified)
inactive

# lookup: test call for N#CSCC1COc2ccccc2O1 (stereo unspecified)
inactive

# lookup: test call for O=C1c2ccccc2N2OC3(N4CCCC4)CCCCC3C12c1ccccc1 (stereo unspecified)
inactive

# lookup: test call for `O=[N+]([O-])c1cc[n+]([O-])c(Cl)c1`
inactive

# lookup: test call for `O=C(Cc1ccccc1)NNc1nc(NNC(=O)c2ccncc2)nc(Nc2ccc(Cl)cc2)n1`
inactive

* * *

measurement_description: NCI Yeast Anticancer Drug Screen. Data for the rad50 strain (AID 155);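 further: 0% = growth of vehicle-only cultures of the same strain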
experimental_setup: S. cerevisiae rad50 strain growth inhibition; at 3.7 µM; active compounds read high
About 79,000 compounds went through this panel and 15% of them were active in at least one assay; those are over-represented in the sample as a whole.
measure_name: growth inhibition (%)
Answer with a number only, understood to be in %.

compound: COC(=O)C(=O)CC(=O)c1cccc(OC)c1
quantitative_readout: -15

compound: Nc1ccc(S(=O)(=O)Nc2nc3c(c(=O)[nH]2)CCCC3)cc1
quantitative_readout: 22

compound: CCOC(=O)/C(=C\c1cccc(C)c1)C(C)=O
quantitative_readout: -8

compound: O=C1CCC(Cc2ccccc2)CN1 (configuration not stated)
quantitative_readout: -2

compound: c1ccc2c(c1)N=C1CCCC3CCCC123 (configuration not stated)
quantitative_readout: 2

Recall and state the measured growth inhibition for `O=C1C=C(Br)C(=O)c2ccccc21` .
46

Recall and state the measured growth inhibition for `CN1CCN(C(=O)c2cccc3cccc(C(=O)O)c23)CC1` .
9

Recall and state the measured growth inhibition for `CCCCN(CCC#N)c1ccc(/C=C/c2ccnc3ccccc23)cc1` .
-7

Recall and state the measured growth inhibition for `CC(=O)Oc1ccc2c(c1)Cc1cc(N3C(=O)C=CC3=O)ccc1-2` .
32

Recall and state the measured growth inhibition for CCN1CCC(O)(c2ccc(Oc3ccc(C)cc3)cc2)C(C(=O)c2ccc(Oc3ccc(C)cc3)cc2)C1 (configuration not stated) .
-20

Recall and state the measured growth inhibition for `COC(=O)C1=C(C(=O)OC)CC(n2nnc(C(=O)OC)c2C(=O)OC)=CC1` .
-3

Recall and state the measured growth inhibition for `COc1cccc(/C=C2\S/C(=N/Nc3nc(-c4ccc([N+](=O)[O-])cc4)cs3)NC2=O)c1O` .
11
